These measurements were taken from paper PMC5063506.

target: human TLR4 (Homo sapiens, UniProt O00206+Q9Y6Y9); construct: expressed in transfected cells; host or cells: HEK293 with stably integrated pNiFty2-SEAP reporter; assay: Human TLR4 NFκB SEAP reporter gene assay in hTLR4-transfected HEK293 cells; assay type: cell-based; details: NFκB SEAP reporter, hTLR4-transfected HEK293 cells, 20 h; read-out: Human TLR4 pEC50 (converted)
Sequence (O00206 24-839): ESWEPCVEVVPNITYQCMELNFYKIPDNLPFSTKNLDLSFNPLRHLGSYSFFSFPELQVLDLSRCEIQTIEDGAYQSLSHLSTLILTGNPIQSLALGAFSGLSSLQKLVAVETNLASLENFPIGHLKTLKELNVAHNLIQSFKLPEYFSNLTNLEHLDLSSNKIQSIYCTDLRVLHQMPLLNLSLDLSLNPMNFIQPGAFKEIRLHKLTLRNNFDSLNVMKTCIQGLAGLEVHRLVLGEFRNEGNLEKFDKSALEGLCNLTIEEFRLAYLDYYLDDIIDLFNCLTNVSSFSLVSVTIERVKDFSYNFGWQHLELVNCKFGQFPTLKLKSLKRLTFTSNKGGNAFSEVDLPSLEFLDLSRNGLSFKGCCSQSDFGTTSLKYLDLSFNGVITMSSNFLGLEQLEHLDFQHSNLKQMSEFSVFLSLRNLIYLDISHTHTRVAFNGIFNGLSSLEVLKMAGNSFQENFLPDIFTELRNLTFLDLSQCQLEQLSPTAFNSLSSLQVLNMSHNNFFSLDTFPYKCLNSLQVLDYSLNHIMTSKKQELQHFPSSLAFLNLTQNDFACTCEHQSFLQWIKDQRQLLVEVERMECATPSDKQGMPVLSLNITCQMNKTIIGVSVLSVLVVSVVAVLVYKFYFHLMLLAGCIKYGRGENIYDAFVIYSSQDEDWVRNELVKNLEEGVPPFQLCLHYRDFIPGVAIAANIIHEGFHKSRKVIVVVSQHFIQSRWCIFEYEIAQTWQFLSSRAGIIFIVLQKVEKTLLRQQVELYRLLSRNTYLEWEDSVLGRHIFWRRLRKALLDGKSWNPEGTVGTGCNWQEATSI
Sequence (Q9Y6Y9 19-160): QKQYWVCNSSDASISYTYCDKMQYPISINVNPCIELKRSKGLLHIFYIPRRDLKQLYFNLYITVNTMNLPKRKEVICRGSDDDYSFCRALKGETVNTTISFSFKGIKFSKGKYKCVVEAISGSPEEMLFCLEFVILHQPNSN
Each entry below lists one item and its recorded EC50 value.

> print(dat)
                                   compound  assay.value
1  O=C(O)Cc1ccc(C(C(=O)NC2CCCC2)N(C(=O)c2cc(-c3ccccc3)n(-c3ccccc3)n2)c2ccc3c(c2)CCC3)cc1 (stereo not shown) [AZ617]      5.01 nM

Observed EC50 on human TLR4 (Homo sapiens, UniProt O00206+Q9Y6Y9), entry Cc1ccc(N(C(=O)c2cc(-c3ccccc3)n(-c3ccccc3)n2)C(C(=O)NC2CCCC2)c2ccc(CC(=O)O)cc2)cc1Cl (stereo not shown) [AZ161] , equals 20 nM

The compound Cc1cccc(CN(C(=O)c2cc(-c3ccccc3)n(-c3ccccc3)n2)C(C(=O)NC2CCCC2)c2ccc(CC(=O)O)cc2)c1C (stereo not shown) [AZ839] on human TLR4 (Homo sapiens, UniProt O00206+Q9Y6Y9): EC50 was 25.1 nM

The observed EC50 for CC(C)c1ccc(N(C(=O)c2cc(-c3ccccc3)n(-c3ccccc3)n2)C(C(=O)NC2CCCC2)c2ccc(/C=C/C(=O)O)cc2)cc1 (stereo not shown) [AZ368] when tested with human TLR4 (Homo sapiens, UniProt O00206+Q9Y6Y9) stands at 1.58 nM
